Overview of reported potency, cGMP generated (HTRF) across a group of binders:
Target: T1, NPR-A receptor (UniProt P16066 33-1061, limits assumed)
T1 sequence (looked up): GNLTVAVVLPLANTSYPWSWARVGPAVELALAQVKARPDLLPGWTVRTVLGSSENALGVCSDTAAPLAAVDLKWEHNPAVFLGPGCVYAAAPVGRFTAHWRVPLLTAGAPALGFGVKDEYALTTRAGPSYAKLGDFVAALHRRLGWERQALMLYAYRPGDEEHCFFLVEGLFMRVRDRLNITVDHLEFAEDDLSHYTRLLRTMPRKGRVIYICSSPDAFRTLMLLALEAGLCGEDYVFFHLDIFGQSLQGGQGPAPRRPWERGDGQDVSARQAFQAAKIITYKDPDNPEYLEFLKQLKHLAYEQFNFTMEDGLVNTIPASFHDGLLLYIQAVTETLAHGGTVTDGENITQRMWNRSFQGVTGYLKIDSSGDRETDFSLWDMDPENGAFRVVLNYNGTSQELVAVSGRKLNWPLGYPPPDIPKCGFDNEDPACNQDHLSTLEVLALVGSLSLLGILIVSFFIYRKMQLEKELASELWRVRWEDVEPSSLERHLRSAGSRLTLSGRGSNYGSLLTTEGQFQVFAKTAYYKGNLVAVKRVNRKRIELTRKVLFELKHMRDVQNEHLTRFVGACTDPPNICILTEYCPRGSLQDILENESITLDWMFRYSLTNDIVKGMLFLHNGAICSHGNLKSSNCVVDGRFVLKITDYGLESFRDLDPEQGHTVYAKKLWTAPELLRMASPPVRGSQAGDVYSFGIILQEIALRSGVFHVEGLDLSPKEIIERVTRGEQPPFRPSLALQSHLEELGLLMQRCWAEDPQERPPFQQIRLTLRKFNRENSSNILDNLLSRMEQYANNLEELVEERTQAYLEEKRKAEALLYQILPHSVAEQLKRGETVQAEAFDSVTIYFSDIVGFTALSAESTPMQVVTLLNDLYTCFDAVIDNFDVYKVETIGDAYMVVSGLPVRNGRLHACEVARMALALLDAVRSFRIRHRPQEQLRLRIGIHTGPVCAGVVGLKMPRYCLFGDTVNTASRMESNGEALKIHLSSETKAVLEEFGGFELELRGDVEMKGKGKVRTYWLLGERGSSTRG
Experiment: cell-based or functional assay
No end group written: not given here. *: point of attachment. code T = T O-glycan (Galβ1-3GalNAc), CC(=O)N[C@@H]1[C@@H](O[C@@H]2O[C@H](CO)[C@H](O)[C@H](O)[C@H]2O)[C@@H](O)[C@@H](CO)O[C@@H]1*

query: Which measured potency, cGMP generated (HTRF) value corresponds to SLRRSSCFGGRMDRIGAQSGLGCNS(code T)FRY (ends and bridges not checked) [ANP with T O-glycan at residue 25] ?
result: 265 nM
